target: K. pneumoniae LpxH (KpLpxH) (Klebsiella pneumoniae subsp. pneumoniae, UniProt A6T5R0); assay: LpxE-coupled malachite green LpxH activity assay; assay type: biochemical; conditions: read-out: KI for KpLpxH; from IC50, competitive binding mode, KM 68.1 μM
Sequence (A6T5R0 whole entry): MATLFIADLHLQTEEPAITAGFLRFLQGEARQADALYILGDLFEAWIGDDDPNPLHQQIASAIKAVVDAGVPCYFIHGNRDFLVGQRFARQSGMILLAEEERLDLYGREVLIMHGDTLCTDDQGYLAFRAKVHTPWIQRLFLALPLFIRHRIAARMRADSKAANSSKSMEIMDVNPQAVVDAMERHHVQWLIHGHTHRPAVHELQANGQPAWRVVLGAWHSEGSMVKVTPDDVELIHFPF
READOUT: pKi
Please report pKi as the negative decimal logarithm of the molar concentration, giving only the number.

Request: Dear colleague, I am looking for the recorded pKi of the following compound: O=C(CCCCCNC(=O)Nc1ccc(S(=O)(=O)N2CCN(c3cc(Cl)cc(C(F)(F)F)c3)CC2)cc1)NO
Response: 8.51
